# target_or_system: Neurogenic locus notch homolog protein 3 (Homo sapiens)
# method_notes: NOTCH3 binders on small-molecule microarray, primary screen, biochemical, 635/667 nm fluorescence (AID 1096)
# measurement_context: NOTCH3 binding, 635 nm fluorescence, higher = more signal

{"molecule": "C=CC[C@]1(C(=O)NCc2ccccc2)N=C(c2ccc(OCCCO)cc2)O[C@H]1c1ccccc1", "composite z-score": 0.778}
{"molecule": "CCOC(=O)[C@H](Cc1ccccc1)NC(=O)CCC1CC(OC(=O)NCc2ccc3c(c2)OCO3)CC2(CCCC(COC(=O)NCc3ccccc3)O2)O1 (stereo not given in full)", "composite z-score": 0.941}
{"molecule": "COC(=O)[C@@]1(Cc2ccc(F)cc2)[C@H]2c3cc(C(=O)N(C)C)n(Cc4ccc(OC)c(OC)c4)c3C[C@H]2CN1C(=O)c1ccccc1", "composite z-score": -0.309}
{"molecule": "CC(CCN1CCCCc2nc(C)c(C)cc21)=NOC(C)CN1CCCc2nc(C)c(C)cc21 (stereo not given)", "composite z-score": 1.04}
{"molecule": "CC(C)[Si]1(C(C)C)O[C@@H](c2ccccc2)c2cc(C3CC3)nc(-c3ccccc3)c21", "composite z-score": 0.492}
{"molecule": "C#C[C@@H]1Oc2ccccc2S(=O)(=O)N2CCC[C@H]12", "composite z-score": -0.176}
{"molecule": "C=CC[C@@H]1C=C[C@H](ON=C(C)CCN2CCc3nc(CC)c(CC)cc3C2)[C@@H](CO)O1", "composite z-score": 0.717}
{"molecule": "COC(=O)C1=C(C)N(Cc2ccccc2)[C@]23O[C@](C(=O)OC)(C(=O)N2[C@@H]1c1ccccc1)[C@H]1CCOC(=O)[C@H]13", "composite z-score": 1.07}
{"molecule": "CN(C)CCCNC(=O)[C@@H]1c2ccccc2C(=O)N(Cc2cc(F)cc(C(F)(F)F)c2)[C@H]1c1ccc(CO)cc1", "composite z-score": -1.2}
{"molecule": "CC(CCC(=O)OC[C@H]1O[C@H](C#Cc2ccccc2)C=C[C@@H]1Oc1ccc(C)cc1)=NO[C@@H](C)c1cn([C@H](CO)Cc2ccccc2)nn1", "composite z-score": 0.281}
{"molecule": "CCN1C(=O)[C@H]2[C@H]3[C@H](O)[C@H](O)CC(=NOCc4ccccc4)[C@H]3CC[C@H]2C1=O", "composite z-score": 0.469}
{"molecule": "N#Cc1ccc(NN2C(C(O)c3cccc4ccccc34)C=CC3C(=O)N(c4ccccc4)C(=O)C32)cc1 (stereo not given)", "composite z-score": -0.262}
{"molecule": "CCCCc1nc2c(c3c1C[C@H](C)OC3)CN(CCC(C)C)CC2", "composite z-score": 1.11}
{"molecule": "CCCNC(=O)OC[C@H]1O[C@H](CCON=C2[C@H]3CCn4c(=O)n(-c5ccccc5)c(=O)n4[C@H]3[C@H](O)[C@@H]3O[C@H]23)C=C[C@@H]1Oc1ccc(OC)cc1", "composite z-score": 0.242}
{"molecule": "C#CCCCON=C1C[C@@H](O)[C@@H](O)[C@@H]2[C@@H]3C(=O)N(c4cccc(Oc5ccccc5)c4)C(=O)[C@@H]3CC[C@@H]12", "composite z-score": 1.1}
